testSystem: Pantothenate synthetase (Mycobacterium tuberculosis (strain ATCC 25618 / H37Rv))
runDescription: Coupled enzyme confirmation of inhibitors against recombinant Mtb PanC (AID 375);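 also: 0% = full reaction with vehicle and 100% = no enzyme background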
conditionNotes: coupled enzyme assay; at 10 µM, stronger effect = higher value
Where a SMILES comes first, the peptide text is derived from it. [ ]: non-standard residue; d: D form. The star is where a group is joined. ξ: configuration not given here. Cbz = O=C(OCc1ccccc1)*; ξK = NCCCCC(N)C(=O)O

| compound | inhibition / % |
| --- | --- |
| CCN1CCN(c2nc3c(c(=O)n(C)c(=O)n3C)n2CCSc2ncccn2)CC1 | 0 |
| CCOC(=O)N1CCN(CC(=O)c2c(C)[nH]c3ccccc23)CC1 | 0 |
| Cc1ccnc(NC(=O)CCC(=O)N(CC(=O)NC(C)(C)C)C2CCCC2)c1 | 0 |
| CCOc1ccccc1NC(=O)N1C2CCCC1CC(NC(=O)C1CC1)C2 (stereo unspecified) | 6 |
| CS(=O)(=O)N(CC(=O)NCc1ccccn1)c1ccc2c(c1)OCCO2 | 0 |
| COc1ccc(OC)c(S(=O)(=O)NCCC2=CCCCC2)c1 | 6 |
| CS(=O)(=O)N(CC(=O)N1CCc2ccccc2C1)c1ccc2c(c1)OCO2 | 0 |
| CCCCCOC(=O)CSc1nnc(-c2cc(OC)c(OC)c(OC)c2)o1 | 4 |
| CCCn1nnnc1SCC(=O)c1ccc2c(c1)OCCO2 | 11 |
| CCn1c(SCC(=O)Nc2cc(C)on2)nc2sc3c(c2c1=O)CCCC3 | 0 |
| CCc1ccc(N2CC(C(=O)OCC(=O)NC3CCS(=O)(=O)C3)CC2=O)cc1 (stereo unspecified) | 0 |
| O=C(O)COc1cccc(NC(=O)C2CCCO2)c1 (stereo unspecified) | 0 |
| CC1Cc2ccccc2N1CC(=O)NC(=O)NCc1ccco1 (stereo unspecified) | 2 |
| O=C(CCn1c(=O)oc2ccccc21)NCc1ccco1 | 1 |
| CC[C@@H]1C(=O)OC[C@@H]1Cc1cncn1C | 0 |
| COC(=O)C(CCCCNC(=O)OCc1ccccc1)NC(=O)CN (stereo unspecified) (H-Gly-[ξK](Cbz)-OMe) | 0 |
| O=c1[nH]c2ccccc2nc1NCCN1CCOCC1 | 1 |
| Cc1nc(CCNS(=O)(=O)c2cccs2)cs1 | 0 |
| Cc1cc(C)c(S(=O)(=O)N(C)CC(N)=O)c(C)c1 | 0 |
| CC(C)n1nnnc1SCC(=O)Nc1ccccc1N1CCOCC1 | 1 |
| Cc1occc1-c1nnc(SCC(=O)c2ccc(F)cc2)n1Cc1ccco1 | 3 |
| CCc1[nH]nc2c1C(c1ccncc1)C(C#N)=C(N)O2 (stereo unspecified) | 4 |
| O=C(Nc1ccon1)c1csc2c1CCCC2 | 6 |
| COc1ccc(S(=O)(=O)N2Cc3ccccc3CC2C(=O)Nc2ccc(O)cc2)cc1OC (stereo unspecified) | 10 |
| Brc1ccc2ncnc(Nc3ccc(N4CCOCC4)cc3)c2c1 | 0 |
| CC1Cc2ccccc2N1NC(=O)c1ccc(Cl)c(S(N)(=O)=O)c1 (stereo unspecified) | 0 |
| c1ccc2c(-c3nc(-c4ccncc4)no3)cccc2c1 | 0 |
| Cc1nc2sc(C#N)c(N)c2c2c1CCCC2 | 2 |
| O=C(CN1C(=O)CSC1=O)N1CCc2ccccc2C1 | 3 |
| O=C(CCC(=O)OCCCC(F)(F)C(F)(F)F)NC1CCCCC1 | 0 |
| Cc1cc(C(=O)Nc2nnc(C(F)(F)F)s2)no1 | 0 |
| CCN(CC)S(=O)(=O)c1ccc(NC2CCCc3ccccc32)nc1 (stereo unspecified) | 0 |
| O=C(CC(C(=O)N1CCc2ccccc21)n1ccnc1)NCc1cccnc1 (stereo unspecified) | 0 |
| Cc1ccccc1NS(=O)(=O)c1cc(S(C)(=O)=O)ccc1Cl | 0 |
| c1cc2c(cc1C1=Nn3c(nnc3C3CCCCC3)SC1)OCO2 | 0 |
| O=C(O)c1cc(/C=N\O)ccc1OCc1ccccc1 | 3 |
| C[N+]1(C)CCc2cc3c(cc2[C@H]1[C@@H]1OC(=O)c2c1ccc1c2OCO1)OCO3 | 0 |
| CCN(CC)C(=O)C1CCCN(Cc2ccc(N(C)C)cc2)C1 (stereo unspecified) | 1 |
| O=C(COC(=O)c1ccc(NS(=O)(=O)c2ccc3c(c2)OCCO3)cc1)NCC1CCCO1 (stereo unspecified) | 2 |
| C=C(C)CSc1nnc2[nH]c(=O)cc(N)n12 | 0 |
| COc1cccc(CN2CCN(C(=O)c3ccco3)CC2)c1OC | 3 |

----------
testSystem: Pantothenate synthetase (Mycobacterium tuberculosis (strain ATCC 25618 / H37Rv)) (UniProt P9WIL5)
Sequence (P9WIL5 whole entry, looked up): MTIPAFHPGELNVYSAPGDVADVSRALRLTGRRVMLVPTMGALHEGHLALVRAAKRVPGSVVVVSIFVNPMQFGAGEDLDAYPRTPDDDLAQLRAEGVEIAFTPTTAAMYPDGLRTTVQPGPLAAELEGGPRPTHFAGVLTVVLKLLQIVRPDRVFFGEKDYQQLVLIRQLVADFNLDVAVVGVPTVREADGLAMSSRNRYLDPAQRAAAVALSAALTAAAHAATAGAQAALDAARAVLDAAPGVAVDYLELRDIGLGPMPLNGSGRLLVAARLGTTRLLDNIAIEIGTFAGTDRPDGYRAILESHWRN
runDescription: Coupled enzyme confirmation of inhibitors against recombinant Mtb PanC (AID 375);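 also: 0% = full reaction with vehicle and 100% = no enzyme background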
conditionNotes: coupled enzyme assay; at 10 µM, stronger effect = higher value

| molecularString | displayUnit | inhibition |
| --- | --- | --- |
| CCc1cccc(NC(=O)CCc2nc(-c3cccs3)no2)c1 | % | 0 |
| CCOC(=O)N1CCC(NC(=O)c2cc(C(=O)NC3CCCC3)ccc2CO)CC1 | % | 1 |
| COC(=O)Nc1nc2ccc(C(=O)c3ccccc3)cc2[nH]1 | % | 1 |

----------
List of growth inhibition values.
runDescription: S. cerevisiae growth inhibition in permissive medium (OD615), pilot counter-assay for S. cerevisiae lifespan shortening project, permissive growth control (AID 705)
conditionNotes: OD615, 24 h, at 10 µM, stronger effect = higher value

| compound | displayUnit | growth inhibition |
| --- | --- | --- |
| COc1ccc(OC)c(N2C(=O)NC(=O)C(CCc3ccncc3)(CCc3ccncc3)C2=O)c1 | % | -15.9 |
| CN1CCN(c2ccc(NC(=O)C(C)(C)C)cc2)CC1 | % | -17.9 |
| C=C(C)c1cccc(C(C)(C)NC(=O)NC2CN3CCC2CC3)c1 (stereo not drawn) | % | -5.2 |
| CC12CNCC(C)(CNC1)C2O (stereo not drawn) | % | 7.96 |
| CCCCCCn1c(=O)c(C(=O)Nc2ccncc2)c(O)c2ccccc21 | % | 93.5 |
| Cc1nc2ccccc2c(=O)n1-c1ccc(F)cc1 | % | -2.1 |
| CCc1sc(C(=O)N2CCC3(CC2)OCCO3)cc1Br | % | -7.48 |
| CC(C)CC1C(C#N)=C(N)Oc2c1c(=O)oc1ccccc21 (stereo not drawn) | % | -12.7 |
| Cc1cccnc1-n1c(-c2ccco2)nc2ccccc2c1=O | % | -5.46 |
| CCCCCCOc1ccc(CN2CCN(C)CC2)cc1 | % | -13.5 |
| CN(C)c1ccc(CN2CC=C(c3ccc(F)cc3)CC2)cc1 | % | -15.2 |
| CCOC(=O)c1c(N)n(Cc2ccco2)c2nc3ccccc3nc12 | % | -1.25 |
| O=C(Cc1ccccc1)Oc1cccc(N2C(=O)CCC2=O)c1 | % | -15.7 |

----------
List of differential viability (reversal) values.
runDescription: MRP1 drug-resistance reversers in H69AR cells – cell-based, doxorubicin co-treatment, pilot screen (AID 601)
conditionNotes: H69AR cells + 2 uM doxorubicin, CellTiter-Glo, 72 h; at 10 µM; stronger effect = higher value
The source made the active and inactive calls.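 The calls were made as follows: active = viability loss from added drug above about 55%, and viability with drug at most 40%, in both replicates (limit read from the data, passing the limit was not always enough); inconclusive = both conditions met in only one replicate; inactive = neither replicate meets both conditions.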

| compound | differential viability (reversal) |
| --- | --- |
| Cc1cccc(C2=NCC(=O)N(CC(=O)NCc3ccco3)c3sc4c(c32)CCCC4)c1 | -28.5% (inactive) |
| CCC(C(=O)N1CCC2(CC1)OCCO2)c1ccccc1 (centres undefined) | 13.2% (inactive) |
| CCOc1ccc(Br)c(C2(O)CC(C)N(C)CC2C)c1 (centres undefined) | 19.5% (inactive) |
| c1ccc(C2CC3CC(c4ccco4)N2O3)cc1 (centres undefined) | 22.5% (inactive) |
| CNP1(NC)=NC(C(F)(F)F)=NC(C(F)(F)F)=N1 | 6.97% (inactive) |
| CN(C)CCN=Cc1c(O)n(-c2cccc3ccccc23)c(=O)[nH]c1=O | 11.9% (inactive) |
| O=c1[nH]c(=O)n(-c2cccc3ccccc23)c(O)c1C=NCCCn1ccnc1 | 10% (inactive) |
| Cc1ccc(-c2nc(CS(=O)CC(=O)N3CCC4(CC3)OCCO4)c(C)o2)cc1 (centres undefined) | -10.6% (inactive) |
| CN(C)[C@@H]1C(=O)C(C(N)=O)=C(O)[C@@]2(O)C(=O)C3=C(O)c4c(O)cccc4[C@@](C)(O)[C@H]3C[C@@H]12 | 11.8% (inactive) |
| Cc1nn(Cc2ccccc2Cl)c(Cl)c1C(=O)OCC(=O)NCc1ccco1 | -6.68% (inactive) |
| COc1ccc(OC)c(N2C(=O)NC(=O)C(CCc3ccncc3)(CCc3ccncc3)C2=O)c1 | -8.92% (inactive) |
| CC1=C(C(=O)N2CCC3(CC2)OCCO3)C2(CCC(C)CC2)OC1=O (centres undefined) | -4.92% (inactive) |
| O=C(C1CCCN(S(=O)(=O)c2cccc3nsnc23)C1)N1CCC2(CC1)OCCO2 (centres undefined) | -16.9% (inactive) |
| CCC(=NCCCN1CCOCC1)c1c(O)n(Cc2ccccc2)c(=O)[nH]c1=O | -1.53% (inactive) |
